Below: a set of entries, each annotated with reported pKi.
SYSTEM NAME: Imidazoleglycerol-phosphate dehydratase (Cryptococcus neoformans var. neoformans B-3501A, UniProt P0CO23)
Sequence (P0CO23 whole entry, looked up): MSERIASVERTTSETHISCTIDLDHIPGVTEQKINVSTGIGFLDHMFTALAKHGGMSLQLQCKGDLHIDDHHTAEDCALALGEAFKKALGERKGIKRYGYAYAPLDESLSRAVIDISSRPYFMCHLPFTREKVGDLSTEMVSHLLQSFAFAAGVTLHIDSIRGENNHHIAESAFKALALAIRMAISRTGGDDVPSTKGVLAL
// pKi here means minus log10 of the molar concentration (mol/L)

>>> measured_number("CC(C)=CC(=O)NC(Cn1cncn1)CP(=O)(O)O (stereo not drawn)")
5.89
>>> measured_number("NC(Cn1cncn1)CP(=O)(O)O (stereo not drawn)")
7.82

In the following, a different compound is considered.
Looking up O=P(O)(O)CC(O)Cn1cncn1 (stereo not drawn) , I found its pKi recorded as 9.22
